Tested on: M14 melanoma
Assay: NCI tumour cell line growth inhibition, 48 h; in the data active = GI50 below about 0.43 µM; inactive = the rest
// allowed return values: yes for active, no for inactive

Worked examples follow.
Nc1nc(-c2ccc(Cl)cc2)cc(-c2ccc(Cl)cc2)c1-c1nc2ccccc2o1; no
NC(=O)c1sc(-n2cnc3ccc(C(F)(F)F)cc32)cc1OCc1ccccc1Br; no
Oc1ccc(Oc2cnc3cc(Cl)ccc3n2)cc1; no

Query: Kindly provide the recorded test outcome for the following compound: `O=C1NC(=O)[C@@H](c2c[nH]c3ccccc23)[C@@H]1c1c[nH]c2ccccc12`
Reply: no

Query: Each compound tested received a call. Report the one for `O=C(Cc1ccc(Nc2ccnc(C(F)(F)F)c2)cc1)Nc1cc(Cl)ccc1O` .
Reply: no

Query: So what was the verdict on CCCCCCCCCCCC1=NC(C)(C)CN1CC(C)O (stereo unspecified) in this test?
Reply: no

Query: Write down the call the test reported for this compound. Item: O=C1CC(c2ccsc2)c2snc(-c3ccc(Cl)cc3)c2N1 (stereo unspecified)
Reply: no

Query: So what was the verdict on `O=C1/C(=C/c2ccc(Cl)cc2)CN(C(=O)CCN2CCC(=NO)CC2)C/C1=C\c1ccc(Cl)cc1` in this test?
Reply: no

Query: What did this assay record as the result for `COc1ccc(-c2nc(-c3ccccn3)c(-c3ccccn3)n2CC(C)C)cc1OC1CCCC1` ?
Reply: no

Query: What was the test verdict on `C[C@@H](Oc1cc(-n2cnc3ccc(OCC4CCN(C)CC4)cc32)sc1C(N)=O)c1ccccc1Cl` ?
Reply: yes

Query: What was the test verdict on `O=C(Cn1c(C(=O)c2ccc(Cl)cc2)nc(-c2ccccc2)c1-c1ccccc1)c1ccc(Cl)cc1` ?
Reply: no

---

TGI values, listed per item
Tested on: OVCAR-4 ovarian
Assay: NCI tumour cell line growth inhibition, 48 h

Here is how some compounds turned out for TGI.
O=C(NN1C(=O)C(Cl)C1c1ccccc1Cl)c1ccccc1O (stereo not drawn); > 100 µM
COc1ccc(N=Nc2c(-c3ccccc3)nn(C(=O)CC(=O)Nc3ccccc3Cl)c2-c2ccccc2)cc1; > 100 µM

Here's the next entry for you.
Query: Record request: TGI value, item `Cc1cn([C@H]2C[C@H](O)[C@@H](CO)O2)c(=O)nc1N`
Reply: > 100 µM

---

System: U251 CNS
Outcome (select one): active, inactive

CCCCCCCCCCCC1=NC(C)(C)CN1CC(C)O (stereo unspecified); inactive
COc1ccc(/C=C\c2cc(OC)c(OC)c(OC)c2)cc1OCC(=O)Nc1nc2ccccc2s1; active
CCOC(=O)c1ccc(N(C=O)CCC(=O)CCl)cc1; active

Query: Assay outcome for `COc1ccc2c(c1)[nH]c(=O)c1c3cc(OC)c(OC)cc3cn21` : what was it?
Reply: active

Query: Dear all, I need the recorded test outcome for O=C1CC(c2ccsc2)c2snc(-c3ccc(Cl)cc3)c2N1 (stereo unspecified) , thank you.
Reply: inactive

Query: Give the logged outcome of this assay for the following molecule: `O=C(Cn1c(C(=O)c2ccc(Cl)cc2)nc(-c2ccccc2)c1-c1ccccc1)c1ccc(Cl)cc1`
Reply: inactive

Query: Per the records of this test, what outcome belongs to `Nc1nccc2c1ccn2-c1cccc(NC(=O)c2ccc(N3CCOCC3)c(C(F)(F)F)c2)c1` ?
Reply: inactive

Query: Please let me know the test result on file for `CCOC(=O)Cn1c(-c2nonc2NC(=O)c2ccccc2F)nc2ccccc21` .
Reply: active

Query: Fill in: this test's call for CCOC(=O)c1ccccc1SC(C[N+](=O)[O-])c1ccccc1 (stereo unspecified) is ___
Reply: inactive

Query: Which result was noted for this molecule in the test: `O=C(Nc1ccc(Nc2ccncc2)cc1)c1ccc(Nc2ccnc3ccc([N+](=O)[O-])cc23)cc1[N+](=O)[O-]`
Reply: inactive

Query: # lookup: test call for `NC(=O)c1sc(-n2cnc3ccc(C(F)(F)F)cc32)cc1OCc1ccccc1Br`
Reply: inactive

Query: How was `CCSc1ccc([C@@H]2[C@@H](N)C(=O)N2c2cc(OC)c(OC)c(OC)c2)cc1` classified in this test?
Reply: active

---

Listing: TGI of selected compounds
Tested on: SK-OV-3 ovarian
Assay: NCI tumour cell line growth inhibition, 48 h

Query: Fill in the blank: the reported TGI of CN1C=COC1N=C1CCCCC1 (stereo not given) is ____.
Reply: > 100 µM

Query: # TGI lookup, item `CCOC(=O)Cn1c(-c2nonc2NC(=O)c2ccccc2F)nc2ccccc21`
Reply: > 100 µM

---

Tested on: UACC-257 melanoma
Assay: NCI tumour cell line growth inhibition, 48 h
measured_attribute: TGI (µM)
Provide the reading as a plain figure in µM.

Reference set, count: 5
O=C1c2cccnc2-c2nccc3c2c1nc1ccc(Br)cc13; 0.169
Cc1ccc(-c2cc(-c3ccc(C)cc3)nc(N3CCN(CCNc4ccnc5cc(Cl)ccc45)CC3)n2)cc1; 6.88
O=C1CCSC(=S)N1c1ccc(Br)c(Cl)c1; 37.8
CC(C)C1=C(Cc2ccccc2)C(=O)O/C1=C\c1ccc(O)c(Cl)c1; 32.8
CC(C)=CCC[C@@H](C)C1=CC(=O)C(C)=C(O)C1=O; 25.5

Query: // lookup TGI | system=UACC-257 melanoma | key= `O=C(Cc1ccc(Nc2ccnc(C(F)(F)F)c2)cc1)Nc1cc(Cl)ccc1O`
Reply: 49.8

Query: Recall the recorded TGI for `Fc1ccc([C@@H]2CCNC[C@H]2COc2ccc3c(c2)OCO3)cc1` with UACC-257 melanoma and state it.
Reply: 24.6

Query: Form entry - test system: UACC-257 melanoma; read-out: TGI; molecule: CCCCCCCCCCCC1=NC(C)(C)CN1CC(C)O (stereo not drawn)
Reply: 7.49

---

System: MDA-N
Assay: NCI tumour cell line growth inhibition, 48 h
measured_attribute: TGI (µM)
Use µM as the unit, but write only the number.

These recorded examples may help you get a feel for the data.
CC(=O)c1ccc2c3c1O[C@H]1c4[nH]c5ccccc5c4C[C@@]4(O)[C@@H](C2)N(CC2CC2)CC[C@]314; 34.6
CCCC(C)c1c(Cl)nc(Cl)nc1Cl (centres undefined); 21
C1=CN2C[n+]3ccc4ccccc4c3N=C2c2ccccc21; 7.59
O=C(NNS(=O)(=O)c1ccccc1)c1csc(NC(=S)NC2CCCCC2)n1; 40.2

Proceeding to the next compound to report its TGI.
Query: Form field: reported TGI of OC1(c2ccc(Cl)cc2)c2c(c3ccccc3c3ccccc23)C2=NCCN21 (centres undefined)
Reply: 51.1

---

Test system: SW-620 colon
Assay: NCI tumour cell line growth inhibition, 48 h
measured_attribute: TGI

C1=CN2C[n+]3ccc4ccccc4c3N=C2c2ccccc21; 34.2 µM

Query: Looking for the measured TGI of CC(O)C(NC(=O)c1ccccc1)C(=O)N(Cc1ccccc1)Cc1ccccc1 (configuration not stated) , can you help?
Reply: > 100 µM

Query: Request the reported TGI associated with COc1ccc(C2C(C#N)=C(S)N(C3OC(CO)C(O)C(O)C3O)C(C)=C2C(C)=O)cc1 (configuration not stated)
Reply: > 100 µM

Query: I am curious: what TGI value has been reported for `CCC(=O)N1C(=O)C(CC)(CC)C(=O)N1C(=O)CC` ?
Reply: > 100 µM

Query: I have this compound here, CC(C)=CC(=O)N[C@@H]1CC2CCC3C(CC[C@@]4(C)C3CC[C@@H]4C(C)N(C)C)[C@@]2(C)C[C@@H]1O (some centres not stated) , and I need its recorded TGI.
Reply: 10.5 µM

Query: Looking for the measured TGI of O=C1CC(C(COCc2ccccc2)OCc2ccccc2)CC(=O)N1 (configuration not stated) , can you help?
Reply: > 100 µM

Query: Looking for the measured TGI of `COc1cc2c(c(OC)c1OC)-c1ccc(SC)c(=O)cc1[C@@H](NCc1cccc([N+](=O)[O-])c1)CC2` , can you help?
Reply: > 100 µM

Query: For the compound shown here, `NC1=Nc2ccccc2Sc2nc3ccccc3n21` , give the reported TGI.
Reply: > 100 µM

---

System: DU-145 prostate
Experiment: NCI tumour cell line growth inhibition, 48 h
measured_attribute: TGI

Illustrative cases are given below, each with its answer.
COc1ccc(-n2cc(-c3cc(OC)c(OC)c(OC)c3)[nH]c2=S)cc1Cl; > 100 µM
O=C(CC(c1ccccc1)C(C(=O)c1ccncc1)C(CC(=O)c1ccncc1)c1ccccc1)c1ccncc1 (centres undefined); > 100 µM
O=C(c1ccccc1)c1c(C(F)(F)F)n([O-])c2cc(F)c(F)cc2[n+]1=O; 8.71 µM
Nc1ccccc1OCCCOc1ccccc1N; > 100 µM
COc1ccc(C2=NNC(c3cc4cc(Br)ccc4nc3Cl)C2)cc1 (centres undefined); > 25 µM
COc1cccc([C@@H]2CC(=O)c3cc4c(cc3N2)OCO4)c1; > 100 µM
CCOC1NC(/N=C/c2ccc(OC)cc2)=C(C#N)C1C#N (centres undefined); > 100 µM
CN(C)c1ccc2cc3ccc(N(C)C)cc3nc2c1; 4.29 µM

Query: Hi! What's the reported TGI for `O=C(Nc1ccc(Oc2ccc(NC(=O)Nc3ccc([N+](=O)[O-])cc3)cc2)cc1)Nc1ccc([N+](=O)[O-])cc1` on DU-145 prostate?
Reply: > 100 µM

Query: // fetch DU-145 prostate TGI for `COc1cc2[nH]c(=O)c3cc(C)cc4c(Cl)nc(c1OC)c2c43`
Reply: > 100 µM

Query: Any idea what TGI came out for COC12C=CC(CC1)C(C)(C)C2OS(C)(=O)=O (centres undefined) on DU-145 prostate?
Reply: > 100 µM

Query: Under DU-145 prostate: TGI value of `Cc1ccc(-c2cc(-c3ccc(C)cc3)nc(N3CCN(CCNc4ccnc5cc(Cl)ccc45)CC3)n2)cc1` ?
Reply: 8.5 µM

Query: # query: TGI | item `COc1cc(C(=O)O/N=C(\N)Cc2cccc3ccccc23)cc(OC)c1OC` | system: DU-145 prostate
Reply: 23.7 µM
